Molecular target: T1, PUF4 RNA-binding domain (Saccharomyces cerevisiae, UniProt P25339 537-888)
T1 sequence: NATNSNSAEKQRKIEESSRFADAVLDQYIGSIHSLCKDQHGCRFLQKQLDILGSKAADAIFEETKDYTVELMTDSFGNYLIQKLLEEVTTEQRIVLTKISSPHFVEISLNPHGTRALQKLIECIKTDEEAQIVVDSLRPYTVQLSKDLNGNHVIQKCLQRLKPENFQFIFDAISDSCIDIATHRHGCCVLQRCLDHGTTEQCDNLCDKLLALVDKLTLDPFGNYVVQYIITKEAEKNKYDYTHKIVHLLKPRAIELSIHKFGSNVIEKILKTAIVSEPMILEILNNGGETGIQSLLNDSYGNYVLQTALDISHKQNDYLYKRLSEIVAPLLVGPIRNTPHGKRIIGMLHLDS
Test: Mg; RNA-MaP; 20 mM Na-HEPES pH 7.4, 30 mM KOAc, 0.75 mM MgCl2, 0.1% Tween-20, 5% glycerol, 0.1 mg/mL BSA, 2 mM DTT; 25 C; 0.0125-409.6 nM protein
Conditions: tags: N-His6-TEV cleaved; C-SNAP kept, Cy3B-labelled; label: tethered on chip by stalled RNA polymerase
The following ranges of Kd define the classes used here: zone 1: < 10 nM; zone 2: ≥ 10 nM and < 40 nM; zone 3: ≥ 40 nM

Worked set:
binder="UCUCUUGUUAUAUUAUUACGUCUCUU (ssRNA) [Id_ii_S1_P5E.3_K5.2_C5.2_[C-2G]_H5.2_A5.1_F5.1_T5.2_[T11C]_[A12G]]" class="zone 2"
binder="Ib_S2_P4E.1_K4.1_C4.1_H4.1_[T3C]_A4.1_[A6G]_F4.1_T4.1 (ssRNA) RNA: UUUGAUUAAUAUGAUAUCGUUCUUUCUUGCAUGUUAUUCUUUCUCGAUAUCAUAUUAAUCUUU" class="zone 3"
binder="Id_iii_S2_P4E.6_K4.2_C4.3_[C-2T]_H4.2_A4.1_F4.1_T4.2 (ssRNA) RNA: UUUGAUUAAUAUGAUAUCGUUCUUUCUUUUUAUAUAUUAGUUUCUUUCUCGAUAUCAUAUUAAUCUUU" class="zone 2"

# bin label for Ic_S2_P4E.1_K4.1_C4.1_H4.1_A4.1_[T5G]_[A6C]_[T7C]_F4.1_[T8C]_T4.1 (ssRNA) RNA: UUUGAUUAAUAUGAUAUCGUUCUUUCUUGUAGCCCAUUCUUUCUCGAUAUCAUAUUAAUCUUU zone 3

# bin label for UCUCUUUGUUUAUGUCUCUU (ssRNA) [Ib_S1_P3E.1_K3.1_C3.1_H3.1_[A4T]_A3.1_F3.1_[A8G]_T3.1] zone 3

# bin label for Ic_S4_P5E.1_K5.1_C5.1_H5.1_A5.1_[T5C]_[T6A]_[A7G]_F5.1_[A10G]_T5.1 (ssRNA) RNA: UUUGACAACUGAUCGUUCUUUCUUGUACAGUUGUUCUUUCUCGAUCAGUUGUCUUU zone 2

# bin label for Id_ii_S4_P5E.4_K5.3_C5.2_[C-2G]_H5.3_A5.1_F5.1_T5.2_[A12C] (ssRNA) RNA: UUUGACAACUGAUCGUUCUUUCUGUACACUUAUUAUCUUCUUUCUCGAUCAGUUGUCUUU zone 1

# bin label for Id_ii_S2_P3E.2_K3.1_C3.2_[T-1G]_H3.1_A3.1_F3.1_T3.2_[T9A]_[A10T] (ssRNA) RNA: UUUGAUUAAUAUGAUAUCGUUCUUUCUCGUGUAUAUAAUUUCUUUCUCGAUAUCAUAUUAAUCUUU zone 1

# bin label for Id_ii_S4_P4E.3_K4.2_C4.2_[T-1G]_H4.2_A4.1_F4.1_T4.2 (ssRNA) RNA: UUUGACAACUGAUCGUUCUUUCUCGUAUAUAUUAGUUUCUUUCUCGAUCAGUUGUCUUU zone 1

# bin label for ACAAACAGUAUAUAUUAACACAAAC (ssRNA) [Id_ii_S3_P4E.3_K4.2_C4.2_[C-2A]_[T-1G]_H4.2_A4.1_F4.1_T4.2_[G10A]_[T11C]] zone 2

# bin label for Ic_S2_P3E.1_K3.1_C3.1_H3.1_A3.1_[T5A]_F3.1_T3.1 (ssRNA) RNA: UUUGAUUAAUAUGAUAUCGUUCUUUCUUGUAAAUAUUCUUUCUCGAUAUCAUAUUAAUCUUU zone 2
